- Assay Remarks: Octanol water partition coefficient, shake flask
- Assay type: physicochemical
- Condition Details: octanol/PBS (pH 7.4), pH 7.4, shake flask, octanol/PBS pH 7.4, 37 °C, read-out: Log p (octanole water partition coefficient)
Recorded Endpoint: logP at 24 h
Answer with a bare number; do not write a unit.

Q) Form field: reported logP at 24 h of `COc1cc(OC)c2c(=O)c(OCCCCN3CCN(C(=O)c4cc(Cl)ccc4[N+](=O)[O-])CC3)c(-c3cc(OC)c(OC)c(OC)c3)oc2c1`
A) 4.82

Q) Lookup `COc1cc(OC)c2c(=O)c(OCCCCN3CCN(C(=O)c4ccc(C(F)(F)F)cc4)CC3)c(-c3cc(OC)c(OC)c(OC)c3)oc2c1`
A) 3.35

Q) Now give it for `COc1cc(OC)c2c(=O)c(OCCCCN3CCN(C(=O)c4ccccc4)CC3)c(-c3cc(OC)c(OC)c(OC)c3)oc2c1` too.
A) 3.01

Q) Now consider `COc1cc(OC)c2c(=O)c(OCCCCN3CCN(C(=O)c4ccncc4)CC3)c(-c3cc(OC)c(OC)c(OC)c3)oc2c1` .
A) 3.01
